Catalogue of solubility kinetic values
# stated conditions: buffer; pH 7.4; 200.0 µM
Give the number; µg/mL is assumed, so skip it.

1. COc1ccnc2c1c(=O)n(Cc1cccc(Cl)c1)c(=O)n2C
9.8

Then this compound:
Report solubility kinetic, nothing else, for this compound: Cc1ccsc1/C=C1/SC(=O)N(CC(=O)N2CCCC2)C1=O
5.9

---

# stated conditions: buffer; pH 7.4; 200.0 µM
Each record here notes measured solubility kinetic.

Name the recorded solubility kinetic of the item Cc1cc(C)c(C)c(S(=O)(=O)N2CCCN(C)CC2)c1C in your answer.
> 46.6 µg/mL

Look up solubility kinetic of O=C1CNC(=S)N1Cc1ccc(F)cc1 and report it.
> 33.6 µg/mL

Assign solubility kinetic to the following record: CCN(Cc1ccccc1)C(=O)CSc1n[nH]c(N)n1
> 43.7 µg/mL

---

Quick list: solubility kinetic per entry.
# stated conditions: buffer; pH 7.4; 200.0 µM
Your answer is read as µg/mL, so omit the unit and give the number.

1) CCCNC(=O)COC(=O)c1ccc(-c2ccccc2)cc1
1
2) COc1ccc(NC(=O)C2=Cc3cccc(OC)c3OC2)cc1
17.7

Supply solubility kinetic value. Item: O=C(CCC(=O)Nc1cccc([N+](=O)[O-])c1)NCc1ccccc1
48.5

Retrieve solubility kinetic measured for Cc1onc(-c2ccccc2)c1CNS(=O)(=O)c1cccc(Cl)c1 and print it.
36.5

Note solubility kinetic for the compound shown: O=C(/C=C/c1c(Cl)cccc1Cl)NCCCn1ccnc1
46.1

Look up and report measured solubility kinetic for this entry: CCn1c(C)c(CS(=O)(=O)c2ccccc2)[nH]c1=O
9.8

Provide solubility kinetic value for the following compound: O=Cc1cn(CC(=O)Nc2ccc3c(c2)OCO3)c2ccccc12
0.4

For CCOc1ccccc1C(=O)NCC(=O)NCC1CCCCC1 , write its solubility kinetic.
5.6

Quote solubility kinetic reported for Cc1c(C(=O)NC(=S)Nc2cccnc2)cccc1[N+](=O)[O-] please.
0.9

Respond only with solubility kinetic recorded for COc1ccc(-c2cc(-c3cccnc3)c(C#N)c(N)n2)cc1
0.6

Give solubility kinetic for Cc1cc(Oc2ccc(Cl)cc2)nc(-c2ccccn2)n1
38.4

Return the recorded solubility kinetic value; entry: Cc1nc(SCc2c(Cl)cccc2Cl)nc(OC(=O)N(C)C)c1C
2.2

Quote solubility kinetic reported for O=C(O)c1c2c(nc3ccc(Cl)cc13)CCC2 please.
32.1

Give a short answer stating reported solubility kinetic for CC(C)Oc1ccc(CNC(=S)Nc2ccccc2)cc1Cl .
7.2

Determine from records and report solubility kinetic for N/C(=N/OC(=O)c1ccccc1Cl)c1ncc([N+](=O)[O-])s1
1.3

Respond only with solubility kinetic recorded for O=C(CCCOC(=O)c1cccnc1Cl)c1ccc(Br)cc1
6.6

Please give measured solubility kinetic of the following entry: COc1ccc(CN2CCOCCOCCOCC2)cc1
39.1

Please look at this compound and report its solubility kinetic: O=C(NCCc1ccccc1)c1ccc(Cl)c(S(=O)(=O)N2CCOCC2)c1
9.3

---

# stated conditions: buffer; pH 7.4; 200.0 µM
reported property: solubility kinetic

# count of solved cases: 5
1) O=[N+]([O-])c1cccc(C2(O)COc3ccccc3O2)c1 (stereo unspecified)
> 41 µg/mL
2) COc1ccc(Cl)cc1S(=O)(=O)n1ccnc1
> 40.9 µg/mL
3) CC1(C)CC(NC(=O)c2ccc(Cl)cc2)CC(C)(C)N1
> 44.2 µg/mL
4) CC1(C)C2CCC(C2)C1(C)NC(=O)CN1CCCC1.Cl (stereo unspecified)
> 45.1 µg/mL
5) COC(=O)Cc1c(O)ccn(CCc2ccccc2)c1=O
> 43.1 µg/mL

Here's the next entry for you.
Consider the compound CCCC(=O)Nc1cc(S(=O)(=O)N2CCOCC2)ccc1N1CCCCC1 . State its measured solubility kinetic.
> 59.3 µg/mL

Reference source for all entries: PubChem BioAssay AID1996
